Below, each entry is listed with its recorded pKd.
# assayed system: P450 2A13 (Homo sapiens)
# Sequence (Q16696 with tags, fused parts or gaps limits assumed): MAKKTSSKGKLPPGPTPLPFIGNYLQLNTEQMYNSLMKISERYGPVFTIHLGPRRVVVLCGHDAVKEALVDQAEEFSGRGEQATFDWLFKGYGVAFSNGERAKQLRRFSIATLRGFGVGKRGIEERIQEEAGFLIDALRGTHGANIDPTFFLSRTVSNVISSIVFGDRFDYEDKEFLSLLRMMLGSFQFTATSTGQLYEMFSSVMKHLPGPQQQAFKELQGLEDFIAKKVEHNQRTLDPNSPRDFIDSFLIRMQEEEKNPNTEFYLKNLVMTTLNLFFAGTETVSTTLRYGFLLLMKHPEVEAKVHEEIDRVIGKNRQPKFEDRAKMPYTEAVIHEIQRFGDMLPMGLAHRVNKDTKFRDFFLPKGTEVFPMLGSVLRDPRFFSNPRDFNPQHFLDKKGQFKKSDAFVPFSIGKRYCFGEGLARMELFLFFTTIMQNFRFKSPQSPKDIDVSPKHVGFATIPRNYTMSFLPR
# method: Spectral binding titration with purified P450 2A13
pKd: −log10 of the molar value.
readout type: pKd

OC1C=Cc2c(ccc3ccc4ccccc4c23)C1O (stereo not shown) [B[c]Phe-3,4-diol]	< 4.70
c1cc2c3c(cccc3c1)CC2	6.32
O=[N+]([O-])c1ccc2ccc3cccc4ccc1c2c34	6.64
c1ccc2c(c1)ccc1c3ccccc3ccc21	< 4.70
Nc1ccc2cc3ccccc3cc2c1	< 4.70
Nc1ccc2c(c1)Cc1ccccc1-2	< 4.70
Cc1c2ccccc2c(C)c2c1ccc1ccccc12 [7,12-DMBA, 7,12-dimethylbenz[a]anthracene]	< 4.70
Cc1cc2ccccc2c2ccc3c(c12)C=CC(O)C3O (stereo not shown)	< 4.70
OC1C=C2c3ccccc3-c3cccc(c32)C1O (stereo not shown) [FA-2,3-diol, 2,3-dihydroxy-2,3-dihydrofluoranthene]	6.07
Cc1cc2ccccc2c2ccc3ccccc3c12	< 4.70
OC1C=Cc2c(cc3ccc4cccc5ccc2c3c45)C1O (racemic) [( ± )B[a]P-7,8-diol, 7,8-dihydroxy-7,8-dihydrobenzo[a]pyrene]	< 4.70
OC1C=Cc2c(ccc3c2ccc2ccccc23)C1O (stereo not shown) [chrysene-1,2-diol, 1,2-dihydroxy-1,2-dihydrochrysene]	< 4.70
c1ccc2c(c1)ccc1ccc3ccccc3c12 [B[c]Phe, benzo[c]phenanthrene]	5.96
c1ccc2c(c1)cc1ccc3cccc4ccc2c1c34 [B[a]P, benzo[a]pyrene]	< 4.70
c1ccc2c(c1)-c1cccc3cccc-2c13	5.62
C1=Cc2cccc3cccc1c23	6.21

Numbers sourced from paper PMC3713097.
